target: mouse BLyS protein (mouse, UniProt Q9WU72 69-309); test: cell-based or functional assay
Sequence (Q9WU72 69-309): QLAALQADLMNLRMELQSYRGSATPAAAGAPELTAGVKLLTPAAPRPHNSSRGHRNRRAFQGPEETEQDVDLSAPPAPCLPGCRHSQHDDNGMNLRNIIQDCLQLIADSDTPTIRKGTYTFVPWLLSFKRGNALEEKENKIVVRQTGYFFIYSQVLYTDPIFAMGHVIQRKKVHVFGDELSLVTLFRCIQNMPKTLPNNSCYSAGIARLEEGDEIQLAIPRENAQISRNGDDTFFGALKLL
Recorded Metric: mouse B lymphocyte proliferation (OD450 nm), antibody 0.8 nM

>>> reported_value("97A3C2H4 (antibody, V domains shown, Mouse hybridoma monoclonal antibody purified on Protein G) VH: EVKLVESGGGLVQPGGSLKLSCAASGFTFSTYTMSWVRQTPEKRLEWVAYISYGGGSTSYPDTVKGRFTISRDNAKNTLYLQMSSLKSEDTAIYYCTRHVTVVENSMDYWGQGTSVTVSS VL: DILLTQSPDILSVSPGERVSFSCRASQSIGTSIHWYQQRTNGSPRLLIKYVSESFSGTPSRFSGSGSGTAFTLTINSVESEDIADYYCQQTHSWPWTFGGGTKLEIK")
2410
>>> reported_value("35E6F7C3 (antibody, V domains shown, Mouse hybridoma monoclonal antibody purified on Protein G) VH: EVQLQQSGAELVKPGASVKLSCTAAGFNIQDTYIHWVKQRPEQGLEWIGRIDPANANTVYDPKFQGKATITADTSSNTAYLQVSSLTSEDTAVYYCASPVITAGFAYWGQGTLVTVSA VL: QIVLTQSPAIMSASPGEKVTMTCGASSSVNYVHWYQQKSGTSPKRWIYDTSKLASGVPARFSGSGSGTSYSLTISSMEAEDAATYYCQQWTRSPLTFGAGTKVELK")
2530
>>> reported_value("111D10D6G3 (antibody, V domains shown, Mouse hybridoma monoclonal antibody purified on Protein G) VH: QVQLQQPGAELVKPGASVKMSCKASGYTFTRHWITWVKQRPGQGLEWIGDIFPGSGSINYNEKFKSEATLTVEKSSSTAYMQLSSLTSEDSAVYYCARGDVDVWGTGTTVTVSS VL: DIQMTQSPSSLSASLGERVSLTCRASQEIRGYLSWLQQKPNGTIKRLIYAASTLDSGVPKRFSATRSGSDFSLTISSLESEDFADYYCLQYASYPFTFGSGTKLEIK")
2520
>>> reported_value("2-1G11 (antibody, V domains shown, From a human naive scFv phage library; also called human BLyS antibody 2-1G11) VH: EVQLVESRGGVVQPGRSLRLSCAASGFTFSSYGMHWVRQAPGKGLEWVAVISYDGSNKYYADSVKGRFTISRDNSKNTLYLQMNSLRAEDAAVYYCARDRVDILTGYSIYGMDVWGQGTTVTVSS VL: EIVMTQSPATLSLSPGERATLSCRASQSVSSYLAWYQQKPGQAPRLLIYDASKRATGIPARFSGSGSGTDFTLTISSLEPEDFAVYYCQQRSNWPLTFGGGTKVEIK")
2820
>>> reported_value("78C11D2D12 (antibody, V domains shown, Mouse hybridoma monoclonal antibody purified on Protein G) VH: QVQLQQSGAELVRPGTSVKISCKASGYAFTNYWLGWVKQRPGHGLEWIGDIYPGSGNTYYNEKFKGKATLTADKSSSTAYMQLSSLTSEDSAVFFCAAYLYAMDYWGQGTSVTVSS VL: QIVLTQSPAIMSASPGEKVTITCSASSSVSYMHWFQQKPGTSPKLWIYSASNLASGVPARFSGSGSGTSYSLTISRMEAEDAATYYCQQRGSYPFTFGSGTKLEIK")
2510
